experiment: qHTS Assay for Lipid Storage Modulators (AID 1519); details: Drosophila S3 cells, BODIPY lipid droplet/cell ratio, laser cytometry; at 57.5 µM (top of the series); cells loaded with oleic acid; note: % is set by controls: 0 for no effect and ±100 for the full control effect
Records with an inconclusive call do not appear. Activity calls are given as the source filed them. Calls come from the whole dose curve.
valueKind: activity change, negative = inhibition

Value of measured activity change, negative = inhibition for the entry COCC(=O)N1CCC2(CC1)CN(C(c1ccccc1)c1ccccc1)C2 : 2.84% (inactive)

Value of measured activity change, negative = inhibition for the entry CN1CCN(c2ncnc3ccc(-c4ccccc4Cl)cc23)CC1 : -1.72% (inactive)

Value of measured activity change, negative = inhibition for the entry CC(=O)NCCNc1cc(-c2ccccc2CN(C)C)ncn1 : -0.819% (inactive)

Value of measured activity change, negative = inhibition for the entry CC(C)NC(=O)N1CC2(CCN(C(=O)c3ccncc3)CC2)C1 : -0.244% (inactive)

Value of measured activity change, negative = inhibition for the entry Cc1cnc(CNc2ccnc(-c3c(C)noc3C)n2)cn1 : 7.48% (inactive)

Value of measured activity change, negative = inhibition for the entry COc1ccc(CNc2ncnc3ccc(-c4ccccc4CN(C)C)cc23)c(OC)c1 : 3.46% (inactive)

====

System: AA1029
Assay: qHTS profiling for inhibitors of Plasmodium falciparum proliferation (AID 504749); note: nearly all actives have a fitted effect of over 60% in size
Details: P. falciparum in erythrocytes, SYBR Green DNA, 72 h; series mostly up to 28.7 µM
Description: NIH National Institute of Allergy and Infectious Diseases [NIAID] NIH Chemical Genomics Center [NCGC] […] Because mature erythrocytes lack DNA, only Plasmodium-derived DNA is detected. NCGC Assay Protocol Summary: The SYBR Green viability assay was adapted from a method described previously (Plouffe et al., 2008). […] The following morning, fluorescence intensity at 485(14) nm excitation and 535(25) nm emission wavelengths was measured on an EnVision (Perkin Elmer) plate reader. […]
Results filed as inconclusive are left out. Active and inactive are the calls of the source. Calls come from the whole dose curve; as a rule, active = well fitted inhibition curve with a large enough effect; inconclusive = small, poorly fitted or top-dose-only effect; inactive = flat fitted curve, though single readings scatter.
Hi there, use one of these labels in your reply, thanks! active, inactive

For CC(C)(C)[C@]1(O)CCN2CC3c4ccccc4CCc4cccc(c43)[C@@H]2C1 (stereo not given in full) , which call appears in the assay record? active

For C[C@@]12C(=O)OC(=O)[C@]1(C)[C@H]1CC[C@@H]2O1 , which call appears in the assay record? active

For C=C1/C(=C\C=C2/CCC[C@]3(C)[C@@H]([C@H](C)CCCC(C)(C)O)CC[C@@H]23)C[C@@H](O)C[C@@H]1O , which call appears in the assay record? inactive

For N[C@H](Cc1ccc(O)c(O)c1)C(=O)O , which call appears in the assay record? inactive

For CN1C(=O)CCC1c1cccnc1 (stereo not given) , which call appears in the assay record? inactive

====

test system: CP201; test: qHTS profiling for inhibitors of Plasmodium falciparum proliferation (AID 504749); note: nearly all actives have a fitted effect of over 60% in size; settings: P. falciparum in erythrocytes, SYBR Green DNA, 72 h; series mostly up to 28.7 µM
Records with an inconclusive call do not appear. Activity calls are given as the source filed them. Calls follow the shape of the dose curve; as a rule, active = well fitted inhibition curve with a large enough effect; inconclusive = small, poorly fitted or top-dose-only effect; inactive = flat fitted curve, though single readings scatter.
Hi there, use one of these labels in your reply, thanks! active, inactive

For CN=C(N)NCCCC(N)C(=O)O (stereo not given) , which call appears in the assay record? inactive

For C[C@@]12C(=O)OC(=O)[C@]1(C)[C@H]1CC[C@@H]2O1 , which call appears in the assay record? active

For CO[C@H]1/C=C/O[C@@]2(C)Oc3c(C)c(O)c4c(O)c(c(/C=N\N5CCN(C6CCCC6)CC5)c(O)c4c3C2=O)NC(=O)/C(C)=C\C=C\[C@H](C)[C@H](O)[C@@H](C)[C@@H](O)[C@@H](C)[C@H](OC(C)=O)[C@@H]1C , which call appears in the assay record? active

For C[C@@H]1[C@H](O)[C@@H](C)/C=C/C=C/C=C/C=C/C=C/C=C/C=C/[C@H](O[C@@H]2O[C@H](C)[C@@H](O)[C@H](N)[C@@H]2O)C[C@@H]2O[C@](O)(C[C@@H](O)C[C@@H](O)[C@H](O)CC[C@@H](O)C[C@@H](O)CC(=O)O[C@H]1C)C[C@H](O)[C@H]2C(=O)O , which call appears in the assay record? inactive

For CN1C(=O)CCC1c1cccnc1 (stereo not given) , which call appears in the assay record? inactive

====

Give measured activation for each item. Keep answers brief.
biological target: Thyrotropin-releasing hormone receptor (Homo sapiens); test: qHTS for Small Molecule Agonists and Allosteric Enhancers of Human TRH Receptor: Validation Screen for Agonists (AID 493127); conditions: TRH receptor agonist cell assay; at 2 µM; hits give high values;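 note: intracellular calcium rise by fluo-8 fluorescence before TRH EC20 addition; 0% is about no effect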
Provide only the numeric value, understood in %.

Value of measured activation for the entry CNc1ncnc2c1ncn2[C@@H]1O[C@H](CO)[C@H](O)[C@H]1O : 1.06

Value of measured activation for the entry NCCC(=O)NCCc1cnc[nH]1 : 1

Value of measured activation for the entry CC(=O)O[C@H]1C[C@@H]2CCC3C(CC[C@@]4(C)[C@H]3C[C@H]([N+]3(C)CCCCC3)[C@@H]4OC(C)=O)[C@@]2(C)C[C@@H]1[N+]1(C)CCCCC1 (stereo not given in full) : 0.25

Value of measured activation for the entry C[C@H](Cc1ccccc1)Nc1ncnc2c1ncn2[C@@H]1O[C@H](CO)[C@H](O)[C@H]1O : -2.69

Value of measured activation for the entry Nc1nc(SCc2ccc([N+](=O)[O-])cc2)c2ncn([C@@H]3O[C@H](CO)[C@H](O)[C@H]3O)c2n1 : 0.75

Value of measured activation for the entry Nc1ncnc2c1ncn2[C@@H]1O[C@H](C(=O)NC2CC2)[C@H](O)[C@H]1O : 1.12

Value of measured activation for the entry CSc1nc(N)c2ncn([C@@H]3O[C@H](COP(=O)(O)OP(=O)(O)OP(=O)(O)O)[C@H](O)[C@H]3O)c2n1 : 24.8

Value of measured activation for the entry OC[C@H]1O[C@@H](n2cnc3c(NCCc4ccccc4)ncnc32)[C@H](O)[C@H]1O : -0.5

Value of measured activation for the entry CC(C)C[C@H]1C(=O)N2CCCC2[C@]2(O)O[C@](NC(=O)[C@@H]3C=C4c5cccc6[nH]c(Br)c(c56)C[C@H]4N(C)C3)(C(C)C)C(=O)N12 (stereo not given in full) : 0.625

Value of measured activation for the entry C[C@]12C=CC(=O)C=C1CCC1C2=CC[C@]2(C)[C@@H](C(=O)CN3CCN(c4cc(N5CCCC5)nc(N5CCCC5)n4)CC3)CC[C@@H]12 (stereo not given in full) : 1.5

====

experiment: Primary qHTS for inhibitors of nuclear receptor binding SET domain protein 2 (NSD2) in an RCH-ACV wild type WT cells (2C) (AID 1645877); settings: RCH-ACV (leukaemia line) NSD2 WT (2C) viability, CellTiter-Glo, 72 h; series mostly up to 44.9 µM; note: nearly all actives have a fitted effect of over 70% in size
Records with an inconclusive call do not appear. Activity calls are given as the source filed them. Calls follow the shape of the dose curve; as a rule, active = well fitted inhibition curve with a large enough effect; inconclusive = small, poorly fitted or top-dose-only effect; inactive = no such curve, though single readings can be large or run the other way.
Hi there, use one of these labels in your reply, thanks! 1.0 for active, 0.0 for inactive

For CC(C)(O)[C@H]1CC[C@@](C)([C@H]2[C@@H](O)C[C@@]3(C)[C@@H]4C[C@H](O[C@@H]5O[C@H](CO)[C@@H](O)[C@H](O)[C@H]5O)[C@H]5C(C)(C)[C@@H](O[C@@H]6OC[C@@H](O)[C@H](O)[C@H]6O)CC[C@@]56C[C@@]46CC[C@]23C)O1 , which call appears in the assay record? 0.0

For O=C1OC2(CCC(C(=O)Nc3ccn(-c4ccccc4F)n3)CC2)c2cnccc21 (stereo unspecified) , which call appears in the assay record? 0.0

For C[C@H]1O[C@H](O[C@H]2[C@H](O)[C@@H](O)[C@@H](O[C@H]3[C@H](O)[C@@H](O)C(O)O[C@@H]3CO)O[C@@H]2CO)[C@H](O)[C@@H](O)[C@@H]1N[C@H]1C=C(CO)[C@@H](O)[C@H](O)[C@H]1O (stereo partly specified) , which call appears in the assay record? 0.0

For O=C(NO)c1ccc(C2=Nc3ccccc3Oc3ccccc32)cc1 , which call appears in the assay record? 1.0

For Cc1cnc(NC(=O)c2cc(Oc3cnc(C(=O)N(C)C)nc3)c3cc(C)oc3c2)cn1 , which call appears in the assay record? 0.0

For C[C@H](NC(=O)CCC(F)(F)F)C(=O)N[C@@H]1C(=O)N(CCO)c2ncccc2-c2ccccc21 , which call appears in the assay record? 0.0

====

Experiment: Stat Signaling Pathway (AID 446);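 note: ME-180 cervical cancer cells given 40 pM IL-6 alongside compound; SIE-controlled beta-lactamase reporter measured as 460/530 nm FRET emission ratio; % is set by controls: 0 for no effect and ±100 for the full control effect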
Conditions: ME-180 (cervical carcinoma) SIE beta-lactamase reporter, IL-6 stimulated, 5 h; at 7.69 µM (top of the series) unless noted
Experimental: NCGC Assay Overview: The IL-6/STAT signaling pathway was assayed in ME-180 cervical carcinoma cells by a beta-lactamase reporter gene controlled by a STAT Inducible Element (SIE). This reporter is induced by IL-6 at 40 pM AC50 and inhibited by the pan JAK inhibitor, 2-(1,1-Dimethylethyl)-9-fluoro-3,6-dihydro-7H-benz[h]-imidaz[4,5-f]isoquinolin-7-one, at approximately 10 nM AC50. Plated cells were incubated overnight and on the following day, stimulated with 40 pM IL-6 for 5 hrs. […]
Results filed as inconclusive are left out. Active and inactive are the calls of the source. Calls follow the shape of the dose curve; as a rule, active = well fitted curve in either direction with a large enough effect (not every such curve was filed as active); inconclusive = small, poorly fitted or top-dose-only effect, or another doubt; inactive = flat fitted curve, though single readings scatter.
valueKind: activity, negative = inhibition

Value of measured activity, negative = inhibition for the entry COc1cccc(-c2cncnc2N(C)Cc2ccco2)c1 : 7.72% (inactive)

Value of measured activity, negative = inhibition for the entry COCCNc1cc(-c2ccccc2C)ncn1 : 13.1% (inactive)

Value of measured activity, negative = inhibition for the entry CC(C)NC(=O)N1CCCC2(CCN(C(=O)c3cccc(F)c3)CC2)C1 : -2.81% (inactive)

Value of measured activity, negative = inhibition for the entry COc1ccc(NC(=O)N2CCCC3(CCN(C(=O)c4csnn4)CC3)C2)cc1 : -9.13% (inactive)

Value of measured activity, negative = inhibition for the entry COc1ccccc1CN1CC2(CCN(C(=O)c3cnccn3)CC2)C1 : -6.42% (inactive)

Value of measured activity, negative = inhibition for the entry COc1ccc(NC(=O)N2CCC3(CC2)CCN(C(=O)c2csnn2)CC3)cc1 : -12% (inactive)

Value of measured activity, negative = inhibition for the entry Cc1nc2cnc(Nc3ccccc3)nc2n(Cc2ccc(F)cc2)c1=O : 2.69% (inactive)

Value of measured activity, negative = inhibition for the entry CN(C)c1ccc(-c2ccc3ncnc(-n4ccnc4)c3c2)cc1 : -10% (inactive)

Value of measured activity, negative = inhibition for the entry O=C(c1cc(C(F)(F)F)cc(C(F)(F)F)c1)N1CCC2(CC1)CCN(c1ccncc1)CC2 : 16.4% (inactive)

Value of measured activity, negative = inhibition for the entry Cc1nc2cncnc2n(Cc2ccccc2)c1=O : -15.3% (inactive)

Value of measured activity, negative = inhibition for the entry CC(=O)N1CCC[C@@]2(CCN(c3ccncc3)C2)C1 : -0.448% (inactive)
